Test system: Danio rerio
Method Description: Cytoprotection in myl7:EGFP transgenic zebra fish embryo assessed as reduction in DOX-induced lethal toxicity by measuring LC50 dosed at 24 hpf and measured 96 hpf (reference value: 51.56 uM)
Assay type: functional
Readout Label: LC50 (µM)
One number for each entry, in µM.

Known results for compounds:
{"columns": ["Entry Smiles", "Study Target", "LC50, µM"],
 "data": [
  ["C[C@]12CC[C@H]3[C@]4(C)CCC[C@@](C)(C(=O)O)[C@H]4CC[C@@]3(C1)[C@H](CO)C2=O", "Danio rerio", 74.83],
  ["C[C@]12CC[C@H]3[C@]4(C)CCC[C@@](C)(C(=O)O)[C@H]4CC[C@@]3(C1)[C@H](C=O)[C@H]2O", "Danio rerio", 92.61],
  ["C[C@]12CC[C@H]3[C@]4(C)CCC[C@@](C)(C(=O)O)[C@H]4CC[C@@]3(C1)[C@H](C(=O)O)[C@H]2O", "Danio rerio", 66.62]
]}

What LC50 appears in the records for this compound with Danio rerio? C[C@]12CC[C@H]3[C@]4(C)CCC[C@@](C)(C(=O)O)[C@H]4CC[C@@]3(C1)[C@H](CO)[C@H]2O 68.5
